- EXPERIMENTAL_TARGET: VHL (Homo sapiens (Human), UniProt P40337)
- MEASUREMENT_PROTOCOL: VHL fluorescence polarization (FP) competition assay
- Assay type: binding
- RUN_CONDITIONS: 1% in DMSO
Grouping by measured IC50 is done with the following cut points: one (below 700 nM), two (700 nM to below 4000 nM), three (4000 nM or more)

Kindly identify the class of Cc1cnccc1-c1ccc(CNC(=O)[C@@H]2C[C@@H](O)CN2C(=O)[C@H](C(C)C)N2Cc3ccccc3C2=O)cc1 [Example 80] . three

Into which bin does this molecule go? Cc1ncsc1-c1ccc(CNC(=O)[C@@H]2C[C@@H](O)CN2C(=O)[C@H](C(C)C)N2Cc3c(C#N)cccc3C2=O)cc1 [Example 35] one

Record Cc1ncsc1-c1ccc(CNC(=O)[C@@H]2C[C@@H](O)CN2C(=O)[C@H](C2CCCC2)N2Cc3ccccc3C2=O)cc1 [Example 38] — which class? two

Please indicate the class for Cc1ncsc1-c1ccc(CNC(=O)[C@@H]2C[C@@H](O)CN2C(=O)[C@@H](NC(=O)c2ccc(C#N)cc2)C(C)(C)C)cc1 [Example 43] based on its IC50. two

Which bin should I file Cc1ncsc1-c1ccc(CNC(=O)[C@@H]2C[C@@H](O)CN2C(=O)[C@@H](NC(=O)C2CCCCC2)C(C)(C)C)cc1 [Example 36] under? two

Category of Cc1ncsc1-c1ccc(CNC(=O)[C@@H]2C[C@@H](O)CN2C(=O)[C@H](C(C)C)N2Cc3cc(F)ccc3C2=O)cc1 [Example 16] , please. one

Category lookup for the molecule Cc1ncsc1-c1ccc(CNC(=O)[C@@H]2C[C@@H](O)CN2C(=O)[C@H](C(C)C)N2Cc3cccc(F)c3C2=O)cc1 [Example 8] one

Where would Cc1ncsc1-c1ccc(CNC(=O)[C@@H]2C[C@@H](O)CN2C(=O)[C@@H](NC(=O)CCc2ccccc2)C(C)(C)C)cc1 [Example 44] land among the classes by reported IC50? one

Using the reported IC50, which band applies to Cc1ncsc1-c1ccc(CNC(=O)[C@@H]2C[C@@H](O)CN2C(=O)[C@@H](NC(=O)[C@H](C)NC(=O)OC(C)(C)C)C(C)(C)C)cc1 [Example 122] ? two

Kindly state the category for this molecule: Cc1ncsc1-c1ccc(CNC(=O)[C@@H]2C[C@@H](O)CN2C(=O)[C@H](C(C)C)N2Cc3cc(C#N)ccc3C2=O)cc1 [Example 34] one

Lab log: CC[C@H](C)[C@H](NC(C)c1ccccc1)C(=O)N1C[C@H](O)C[C@H]1C(=O)NCc1ccc(-c2scnc2C)cc1 (stereo partly shown) [Example 105] — assign IC50 category three

// bin(item) where item = CC(C)[C@@H](C(=O)N1C[C@H](O)C[C@H]1C(=O)NCc1ccc(-c2cnn[nH]2)cc1)N1Cc2ccccc2C1=O [Example 100] three
